Reference source for all entries: paper PMC10533049

For each record, write down the corresponding viability at 100 μg/mL.
assay: Viability of dendritic cells (CCK-8 assay); format: cell-based; details: DCs, 100 μg/mL, CCK-8, mean ± S.D., triplicate; read-out: Cell Viability (%) (DCs)
Give bare numbers, in %.

Known results for compounds:
# Compound, Observable, Measured Value
records = [
    ("C=C[C@@](C)(Cl)[C@@H](Cl)/C=C/C(=C/Cl)C(Cl)Cl", "viability at 100 μg/mL", 51.1),
    ("C=C[C@@](C)(Cl)[C@H](Cl)/C=C/C(=C/Cl)C(Cl)Cl", "viability at 100 μg/mL", 49.1),
    ("C=C[C@@](C)(Cl)[C@@H](Cl)/C=C/C(C)(Cl)C(Cl)Cl (relative stereo)", "viability at 100 μg/mL", 88.8),
]

// for each compound in input: emit viability at 100 μg/mL
1. C=C[C@@](C)(Cl)[C@@H](Br)/C=C/[C@](C)(Cl)C(Cl)Cl
2. C=C[C@](C)(Cl)[C@H](Cl)/C=C/C(=C/Cl)C(Br)Br

Result:
47
80.2
